B1: 6YSE (parent)
chain: HERALMVNRLQKLTRMLRVHPDPKWKQEQQELIKRLK

- Variants of: B1
- procedure.text: folding stability dG (cDNA display proteolysis); higher = more stable
- condition.label: PBS, room temperature
Tick t if folding stability dG is 0.8 kcal/mol or greater. Tick f if folding stability dG is less than 0.8 kcal/mol.

Record Q29H ; criterion: folding stability dG no lower than 0.8 kcal/mol. Met?
f

Record D22G ; criterion: folding stability dG no lower than 0.8 kcal/mol. Met?
f

Record R35A ; criterion: folding stability dG no lower than 0.8 kcal/mol. Met?
t

Record E2H ; criterion: folding stability dG no lower than 0.8 kcal/mol. Met?
t

Record M6E ; criterion: folding stability dG no lower than 0.8 kcal/mol. Met?
f

Record P23F ; criterion: folding stability dG no lower than 0.8 kcal/mol. Met?
f

Record Q30M ; criterion: folding stability dG no lower than 0.8 kcal/mol. Met?
t

Record N8G ; criterion: folding stability dG no lower than 0.8 kcal/mol. Met?
t

Record H20Q ; criterion: folding stability dG no lower than 0.8 kcal/mol. Met?
t

Record L5W ; criterion: folding stability dG no lower than 0.8 kcal/mol. Met?
t

Record W25A ; criterion: folding stability dG no lower than 0.8 kcal/mol. Met?
t

Record L13I ; criterion: folding stability dG no lower than 0.8 kcal/mol. Met?
t

Record D22N ; criterion: folding stability dG no lower than 0.8 kcal/mol. Met?
t

Record L36F ; criterion: folding stability dG no lower than 0.8 kcal/mol. Met?
f

Record E2R ; criterion: folding stability dG no lower than 0.8 kcal/mol. Met?
t

Record R9V ; criterion: folding stability dG no lower than 0.8 kcal/mol. Met?
f

Record L36W ; criterion: folding stability dG no lower than 0.8 kcal/mol. Met?
f

Record L10Y ; criterion: folding stability dG no lower than 0.8 kcal/mol. Met?
f

Record R35D ; criterion: folding stability dG no lower than 0.8 kcal/mol. Met?
f

Record R3G ; criterion: folding stability dG no lower than 0.8 kcal/mol. Met?
f

Record W25I ; criterion: folding stability dG no lower than 0.8 kcal/mol. Met?
t

Record D22Y ; criterion: folding stability dG no lower than 0.8 kcal/mol. Met?
t

Record M6H ; criterion: folding stability dG no lower than 0.8 kcal/mol. Met?
f

Record T14V ; criterion: folding stability dG no lower than 0.8 kcal/mol. Met?
t

Record Q27W ; criterion: folding stability dG no lower than 0.8 kcal/mol. Met?
f

Record R9C ; criterion: folding stability dG no lower than 0.8 kcal/mol. Met?
t

Record L36M ; criterion: folding stability dG no lower than 0.8 kcal/mol. Met?
f

Record W25S ; criterion: folding stability dG no lower than 0.8 kcal/mol. Met?
f

Record V19M ; criterion: folding stability dG no lower than 0.8 kcal/mol. Met?
t

Record E28A ; criterion: folding stability dG no lower than 0.8 kcal/mol. Met?
f

Record R9F ; criterion: folding stability dG no lower than 0.8 kcal/mol. Met?
f

Record E2M ; criterion: folding stability dG no lower than 0.8 kcal/mol. Met?
t

Record K34R ; criterion: folding stability dG no lower than 0.8 kcal/mol. Met?
t

Record Q11T ; criterion: folding stability dG no lower than 0.8 kcal/mol. Met?
t

Record E28T ; criterion: folding stability dG no lower than 0.8 kcal/mol. Met?
f

Record R9Q ; criterion: folding stability dG no lower than 0.8 kcal/mol. Met?
f

Record K26L ; criterion: folding stability dG no lower than 0.8 kcal/mol. Met?
t

Record H1F ; criterion: folding stability dG no lower than 0.8 kcal/mol. Met?
t

Record H20V ; criterion: folding stability dG no lower than 0.8 kcal/mol. Met?
f

Record K37T ; criterion: folding stability dG no lower than 0.8 kcal/mol. Met?
t

Record M16A ; criterion: folding stability dG no lower than 0.8 kcal/mol. Met?
f

Record K26H ; criterion: folding stability dG no lower than 0.8 kcal/mol. Met?
t

Record T14I ; criterion: folding stability dG no lower than 0.8 kcal/mol. Met?
t

Record T14R ; criterion: folding stability dG no lower than 0.8 kcal/mol. Met?
t

Record Q30W ; criterion: folding stability dG no lower than 0.8 kcal/mol. Met?
t
